Assay: NCI Yeast Anticancer Drug Screen. Data for the mlh1 rad18 strain (AID 175)
Settings: S. cerevisiae mlh1 rad18 strain growth inhibition; at 50.0 µM; stronger effect = higher value
Description: Growth inhibition of yeast strains with defined genetic alterations is measured as a screen for potential anti-cancer activity. Selected strains with alterations in DNA damage repair or cell cycle control were exposed to compounds and growth inhibition was measured relative to vehicle treated controls. The strain used in this assay is mlh1 rad18
Compounds without any hit were thinned out: in the full panel of roughly 79,000, 15% have a hit.
# growth inhibition per record follows
API: value field is a number in %; no unit string.

# example entries with known answers
molecule: C/C=C(\C)C(=O)N/N=C\C=C\c1ccccc1
growth inhibition / %: -7.05
//
molecule: Cc1cccc(C(=O)NC(C)C)c1
growth inhibition / %: -19.6
//
molecule: O=C1CCc2cc3c(cc21)OCO3
growth inhibition / %: -6.15

[Q] What does the record list as growth inhibition for CC1CCC(=N\O)/C(=N/O)C1 (stereo not given) ?
[A] -5.3

[Q] Request the reported growth inhibition associated with CC1OC(OC2C(OC(=O)[C@]34CCC(C)(C)C[C@H]3C3=CC[C@@H]5[C@@]6(C)CC[C@H](OC7OC(C(=O)O)C(O)C(OC8OCC(O)C(O)C8O)C7O)C(C)(C)[C@@H]6CC[C@@]5(C)[C@]3(C)CC4)OCC(O)C2O)C(O)C(OC2OCC(O)C(O)C2O)C1OC1OCC(O)C(OC2OCC(O)C(O)C2O)C1O (stereo not given in full)
[A] 29.8

[Q] // lookup growth inhibition for "O=C(Oc1ccccc1[N+](=O)[O-])Oc1ccccc1[N+](=O)[O-]"
[A] -2.7

[Q] Given the entry CCOC(=O)C(C)C(=O)NCc1ccccc1 (stereo not given) , report its measured growth inhibition.
[A] 11.3

[Q] Which growth inhibition value belongs to "Cc1c(Cl)cccc1NC(=O)OCCCc1ccccc1" ?
[A] 10.2

[Q] Entry under review: "O=C(O)COc1ccccc1/C=C1/SC(=S)N(c2ccccc2)C1=O" . Reported growth inhibition?
[A] 1.1

[Q] Give the measured growth inhibition of "COc1nc2n[nH]nc2c(=O)n1C" .
[A] -21.6
